FYI, the data here is from ChEMBL document CHEMBL1127746.

Test system: Mus musculus
Experiment: Effective dose at which 50% of the mice were protected from clonic seizures induced by pentylenetetrazole (85 mg/kg)
Type: functional
Criterion: ED50 strictly less than 300 mg/kg. Met: criterion met. Not met: criterion not met.

CC1(C)CCOC1=O ... criterion not met
C[C@H]1CC12CCOC2=O (stereo partly specified) ... criterion met
CCC1(C(C)C)CCOC1=O (stereo unspecified) ... criterion met
C[C@@H]1CC12CCOC2=O (stereo partly specified) ... criterion met

Request: Please let me know if O=C1OCCC12CCCC2 shows ED50 below 300 mg/kg.
Response: criterion not met

Request: Please let me know if CC1(C)CC12CCOC2=O (stereo unspecified) shows ED50 below 300 mg/kg.
Response: criterion met

---

Reported Response is given for each of the following compounds.
Target: GABA-A receptor; anion channel (Rattus norvegicus) (UniProt O09028+P15431+P18506+P18508+P19969+P20236+P23574+P23576+P28471+P28473+P30191+P62813+P63079+P63138+Q91ZM7+Q9ES14)
Assay: Percent response relative to current produced by 10 uM GABA in rat hippocampal cells
Assay type: functional, cell-based
Conditions: Hippocampus
// return the numeric value with its unit appended

Previously resolved entries follow.
C[C@H]1CC12CCOC2=O (stereo partly specified) ... 149%
CC1CCCC12CCOC2=O (stereo unspecified) ... 252%
CC(C)C1(C(C)C)CCOC1=O ... 328%
O=C1OCCC12CC2 ... 62%
CCC1(C(C)C)CCOC1=O (stereo unspecified) ... 222%

Request: Let me know recorded Response for CCC1(CC)CCOC1=O , thanks.
Response: 301%

Request: Let me know recorded Response for CC1(C)CCOC1=O , thanks.
Response: 41%

Request: Let me know recorded Response for CC1(C)CCCC12CCOC2=O (stereo unspecified) , thanks.
Response: 327%

Request: Let me know recorded Response for C[C@@H]1CC[C@H](C)C12CCOC2=O (stereo partly specified) , thanks.
Response: 198%

Request: Let me know recorded Response for C[C@@H]1CC12CCOC2=O (stereo partly specified) , thanks.
Response: 48%

Request: Let me know recorded Response for CCC1(C)CCOC1=O (stereo unspecified) , thanks.
Response: 170%

---

Biological target: GABA-A receptor; anion channel
Experiment: Displacement of 35[S]-TBPS from picrotoxinin (GABA-A) receptor of rat neuronal membranes
Format: cell membranes, Membrane
Reported pIC50 is given for each of the following molecules.
Lab note — pIC50 values are minus log10 of concentrations in M.

Previously resolved entries follow.
O=C1OCCC12CCCC2 ... 6.09
CC1(C)CCCC12CCOC2=O (centres undefined) ... 6.44
CCC1(C(C)C)CCOC1=O (centres undefined) ... 6.62

Request: Let me know recorded pIC50 for CCC1(CC)CCOC1=O , thanks.
Response: 6.12
